# Measured On: T1, Full-length cynomolgus monkey TIGIT on CHO-K1 cells (CHO-K1 cynomolgus monkey TIGIT) (cynomolgus monkey)
# T1 construct: NCBI XP_015300911.1
# Assay Explanation: cell binding, CHO-K1 cynomolgus monkey TIGIT
# Method: The collected cells were washed once with PBS (Hyclone, CAT #SH30256), resuspended to 2×10⁵/50 μL with 1% BSA-PBS. The antibodies were diluted to 80 nM with 1% BSA-PBS (diluted by 3-fold serial dilution for 12 concentration points). The 50 μL cells were then mixed with 50 μL diluted antibodies, and then incubated at 4° C. for 60 minutes. […] After washing twice with PBS, the cell samples were resuspended with 1% BSA-PBS, 100 μL/well and then analyzed by flow cytometry (BD, Canto II). […] [0298] […]
pEC50: −log10 of the molar value.
Parameter: pEC50. Scope: all listed entries.
Readout Kind: pEC50

[[record]]
binder = "TIGIT-CHI-002 (antibody, V domains shown, Human-mouse chimeric antibody) VH: EVQLQESGPGLAKPSQTLSLACSVTGYSITSDSWNWIRKFPGNKLEYMGYISYSGNTYYNPSLKSRISITRDTSKNQFYLQLNSVTTEDTATYYCARLDFSNYGGAVDYWGQGTSVTVSS VL: DIVMTQSHTFMSTSVGDRVSITCKASQNVRTAVAWYQQKPGQSPKLMIYSASYRYTGVPDRFTGSGSGTDFTFTISSVQAEDLAVYYCQQYYTTPWTFGGGAKLEIQ"
value_measured = 10.43

[[record]]
binder = "TIGIT-006-H2L3 (antibody, V domains shown, Humanized anti-TIGIT antibody) VH: EVQLQESGPGLVKPSETLSLTCAVSGYSMTSDYWNWIRQPPGKGLEWIGYISYSGRTYYNPSLKSRVTISRDTSKNQFSLKLSSVTAADTAVYYCARGDYSNYGGAMYDWGQGTTVTVSS VL: DIVMTQSPDSLAVSLGERATINCRASQGVSTTIAWYQQKPGQSPKLLIYSASYRYTGVPRFSGSGSGTDFTLTISSLQAEDVAVYYCQQYYSSPFTFGGGTKVEIK"
value_measured = 9.59

[[record]]
binder = "TIGIT-006-H3L3 (antibody, V domains shown, Humanized anti-TIGIT antibody) VH: EVQLQESGPGLVKPSETLSLTCAVSGYSMTSDYWNWIRQPPGKKLEWIGYISYSGRTYYNPSLKSRVTISRDTSKNQFSLKLSSVTAADTAVYYCARGDYSNYGGAMYDWGQGTTVTVSS VL: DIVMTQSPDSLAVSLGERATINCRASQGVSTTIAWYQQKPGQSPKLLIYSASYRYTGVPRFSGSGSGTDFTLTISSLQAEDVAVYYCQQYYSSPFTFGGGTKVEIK"
value_measured = 8.20

